The following binders are listed with their measured pKd values.
Molecular target: T1, murine BACE1 ECD
T1 construct: analyte of the Octet assay (200 nM) and enzyme of the first short substrate assay
T1 sequence (single chain, as listed by the source limits assumed): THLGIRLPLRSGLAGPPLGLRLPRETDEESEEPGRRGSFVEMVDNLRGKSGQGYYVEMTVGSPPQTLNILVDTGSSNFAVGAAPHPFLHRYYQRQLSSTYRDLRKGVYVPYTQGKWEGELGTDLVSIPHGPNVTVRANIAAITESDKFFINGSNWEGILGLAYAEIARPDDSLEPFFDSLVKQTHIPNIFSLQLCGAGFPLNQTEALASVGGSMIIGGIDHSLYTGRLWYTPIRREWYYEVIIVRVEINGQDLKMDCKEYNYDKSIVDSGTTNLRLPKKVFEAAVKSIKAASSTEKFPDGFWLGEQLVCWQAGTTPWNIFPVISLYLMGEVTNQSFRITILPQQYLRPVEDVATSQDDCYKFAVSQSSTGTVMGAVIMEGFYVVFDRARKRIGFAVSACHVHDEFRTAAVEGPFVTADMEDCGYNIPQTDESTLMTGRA
Assay: Octet, pH 7.5;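 also: antibodies captured on anti-human capture biosensor tips, dissociation followed in PBS with BSA buffer, kinetics fitted with a one-to-one binding model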
Note: pKd values are expressed as the negative base-10 logarithm of concentration in M.

{"columns": ["binder", "reported-metric", "reported-measurement"],
 "data": [
  ["5896 (antibody, V domains shown, anti-BACE1 IgG) VH: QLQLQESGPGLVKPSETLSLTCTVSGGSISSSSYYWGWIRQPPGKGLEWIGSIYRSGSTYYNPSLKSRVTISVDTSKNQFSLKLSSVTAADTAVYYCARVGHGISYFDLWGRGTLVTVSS VL: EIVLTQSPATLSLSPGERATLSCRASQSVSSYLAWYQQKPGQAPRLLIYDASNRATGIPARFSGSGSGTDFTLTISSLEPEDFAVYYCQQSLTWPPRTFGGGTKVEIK", "pKd", 8.54]
]}

Query binder follows.
Lab note: measured pKd of 5897 (antibody, V domains shown, anti-BACE1 IgG) VH: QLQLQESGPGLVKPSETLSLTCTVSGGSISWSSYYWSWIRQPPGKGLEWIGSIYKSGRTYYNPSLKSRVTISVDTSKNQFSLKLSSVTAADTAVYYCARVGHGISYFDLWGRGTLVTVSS VL: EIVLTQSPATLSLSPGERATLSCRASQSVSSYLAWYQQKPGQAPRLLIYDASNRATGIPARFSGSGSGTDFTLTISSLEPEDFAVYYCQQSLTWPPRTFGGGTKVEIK was 8.96

Recorded values, source patent US20180057604A1.
